B1: LINE1-full (parent)
chain: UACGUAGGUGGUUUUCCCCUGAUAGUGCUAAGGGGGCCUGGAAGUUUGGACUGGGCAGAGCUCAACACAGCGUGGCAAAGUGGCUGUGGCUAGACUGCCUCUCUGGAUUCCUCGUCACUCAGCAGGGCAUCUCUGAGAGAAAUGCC

# Variants of: B1
# Protocol Details: self-cleavage, relative activity (ratio to wild type); higher = more cleavage; in vitro, sequencing; the parent is a self-cleaving ribozyme
Rule: Condition met for self-cleavage not less than 1, Condition not met for anything less.

Problem: Is self-cleavage at least 1? Consider A42U U81C
Solution: Condition met

Problem: Next record, please: U100C A140G
Solution: Condition met

Problem: Then what about the variant A42G G72U ?
Solution: Condition met

Problem: Moving on to A43G A64G
Solution: Condition not met

Problem: Can you handle A107U U130C next?
Solution: Condition met

Problem: Next up: G72U U130A
Solution: Condition met

Problem: Same read-out for A22G U73G ?
Solution: Condition met

Problem: Another: U1C U5C
Solution: Condition not met

Problem: Another variant to check: U1C A64U
Solution: Condition not met

Problem: Same read-out for U46C U108C ?
Solution: Condition met

Problem: Then this variant: U87A U132C
Solution: Condition not met

Problem: Please answer likewise for U12C U73A
Solution: Condition met

Problem: Now consider U20C U104A and answer again.
Solution: Condition met

Problem: Next record, please: U14A A136G
Solution: Condition not met

Problem: Could you do the same for A6U U73C , please?
Solution: Condition met

Problem: Item: A43U U73C
Solution: Condition met

Problem: Consider next the variant A31G G82A in the same way.
Solution: Condition met

Problem: What do you have for U87C U104A ?
Solution: Condition not met

Problem: Queued: G88A U132C
Solution: Condition not met

Problem: U109C U119C , same question.
Solution: Condition met

Problem: Please give the result for U115C A141U too.
Solution: Condition met

Problem: And for U29A U62C ?
Solution: Condition not met

Problem: Field entry: G72A U132C
Solution: Condition met

Problem: Do the same for U108C C120A please
Solution: Condition met

Problem: Also, U91C U100A please.
Solution: Condition not met

Problem: Same again, this time with U15C C146U
Solution: Condition met

Problem: Same thing, different variant: A30G U62C
Solution: Condition not met

Problem: # repeat for G34A G114A
Solution: Condition met

Problem: Can you check U52A A77U next?
Solution: Condition met

Problem: And for U9A A121C ?
Solution: Condition not met

Problem: Okay, and U73C A141G ?
Solution: Condition met

Problem: Cool, now A2G A42U
Solution: Condition not met

Problem: Moving on to the next variant: A31U U85G
Solution: Condition not met
